Just for reference, patent US8940742B2 is where these values come from.

target: RAJI p110 δ (Homo sapiens, UniProt O00329); experiment: RAJI p110 δ cellular assay (phospho-AKT);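 further: potency based on lowered phosphorylated AKT in RAJI cells, as a readout of PI3K-δ dependent B-cell receptor signaling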
Sequence (O00329 whole entry): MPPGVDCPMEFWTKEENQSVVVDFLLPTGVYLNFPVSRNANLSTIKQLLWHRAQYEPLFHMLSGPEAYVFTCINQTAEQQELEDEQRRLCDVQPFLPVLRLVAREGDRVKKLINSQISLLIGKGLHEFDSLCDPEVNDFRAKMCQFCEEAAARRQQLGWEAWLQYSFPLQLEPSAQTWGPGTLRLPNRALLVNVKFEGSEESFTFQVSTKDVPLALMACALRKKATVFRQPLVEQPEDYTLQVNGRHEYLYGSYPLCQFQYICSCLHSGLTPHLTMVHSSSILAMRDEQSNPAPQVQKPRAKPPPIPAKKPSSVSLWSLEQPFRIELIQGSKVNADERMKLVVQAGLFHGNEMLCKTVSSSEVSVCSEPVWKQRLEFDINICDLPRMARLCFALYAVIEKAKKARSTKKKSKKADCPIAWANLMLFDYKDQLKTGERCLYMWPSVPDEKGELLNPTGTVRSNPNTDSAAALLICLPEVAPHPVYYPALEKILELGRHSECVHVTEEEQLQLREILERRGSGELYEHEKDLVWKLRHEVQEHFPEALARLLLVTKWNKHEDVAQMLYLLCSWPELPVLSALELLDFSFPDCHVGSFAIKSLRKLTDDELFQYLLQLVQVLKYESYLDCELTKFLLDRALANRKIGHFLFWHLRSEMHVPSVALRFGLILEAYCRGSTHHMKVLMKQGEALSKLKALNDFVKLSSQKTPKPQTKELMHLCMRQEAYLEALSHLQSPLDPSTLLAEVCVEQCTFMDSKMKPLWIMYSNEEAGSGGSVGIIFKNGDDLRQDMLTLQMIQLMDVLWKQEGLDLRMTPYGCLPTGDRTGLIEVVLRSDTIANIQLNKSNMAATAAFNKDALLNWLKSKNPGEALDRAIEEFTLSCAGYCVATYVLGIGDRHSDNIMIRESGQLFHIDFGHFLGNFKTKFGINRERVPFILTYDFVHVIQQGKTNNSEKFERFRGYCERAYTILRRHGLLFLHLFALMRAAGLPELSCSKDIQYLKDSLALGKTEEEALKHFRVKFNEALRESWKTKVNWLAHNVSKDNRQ
Sequence (P27986 whole entry partner): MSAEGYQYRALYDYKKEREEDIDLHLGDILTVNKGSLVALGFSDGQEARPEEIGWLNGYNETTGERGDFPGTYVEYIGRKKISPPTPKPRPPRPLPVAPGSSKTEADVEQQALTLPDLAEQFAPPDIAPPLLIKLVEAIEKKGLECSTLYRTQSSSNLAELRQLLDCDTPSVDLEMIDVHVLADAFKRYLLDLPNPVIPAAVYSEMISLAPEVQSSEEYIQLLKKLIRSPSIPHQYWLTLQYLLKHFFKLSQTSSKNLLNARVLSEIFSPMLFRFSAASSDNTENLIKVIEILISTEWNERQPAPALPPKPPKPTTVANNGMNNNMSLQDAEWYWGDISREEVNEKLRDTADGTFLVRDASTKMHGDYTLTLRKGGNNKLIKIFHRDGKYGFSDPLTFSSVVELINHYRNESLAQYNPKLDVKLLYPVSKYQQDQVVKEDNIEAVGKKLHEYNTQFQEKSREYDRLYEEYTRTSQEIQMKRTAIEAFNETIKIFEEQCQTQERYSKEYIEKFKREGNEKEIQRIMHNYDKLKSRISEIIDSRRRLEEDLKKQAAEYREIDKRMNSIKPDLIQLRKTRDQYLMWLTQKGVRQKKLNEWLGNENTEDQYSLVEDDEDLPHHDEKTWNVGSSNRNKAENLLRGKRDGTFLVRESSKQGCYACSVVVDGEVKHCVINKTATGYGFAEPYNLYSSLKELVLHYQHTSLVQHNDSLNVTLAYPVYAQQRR
READOUT_TYPE: IC50

line_notation=C[C@H](NC(=O)c1nc(-c2cscn2)cnc1N)c1cc2cccc(Cl)c2c(=O)n1-c1ccccc1 assayed_target="RAJI p110 δ (Homo sapiens, UniProt O00329)" recorded_result="100 to 1000 nM"
line_notation=CC(C)Oc1cc(-c2cccc3nc([C@H](C)NC(=O)c4c(N)nn5cccnc45)n(-c4ccccc4)c(=O)c23)ccn1 assayed_target="RAJI p110 δ (Homo sapiens, UniProt O00329)" recorded_result="< 100 nM"
line_notation=C[C@H](NC(=O)c1c(N)nn2cccnc12)c1cc2cccc(C#N)c2c(=O)n1-c1ccccc1 assayed_target="RAJI p110 δ (Homo sapiens, UniProt O00329)" recorded_result="< 100 nM"
line_notation=C[C@H](NC(=O)c1cncc2cccnc12)c1cc2cccc(Cl)c2c(=O)n1-c1ccc(F)cc1 assayed_target="RAJI p110 δ (Homo sapiens, UniProt O00329)" recorded_result="< 100 nM"
line_notation=C[C@H](NC(=O)c1c(N)nn2cccnc12)c1cc2cccc(-c3cccs3)c2c(=O)n1-c1ccccc1 assayed_target="RAJI p110 δ (Homo sapiens, UniProt O00329)" recorded_result="100 to 1000 nM"
line_notation=CC(C)NS(=O)(=O)c1cccc(-c2cnc(N)c(C(=O)N[C@@H](C)c3cc4cccc(Cl)c4c(=O)n3-c3ccccc3)n2)c1 assayed_target="RAJI p110 δ (Homo sapiens, UniProt O00329)" recorded_result="< 100 nM"
line_notation=C[C@H](NC(=O)c1nc(-c2cccc(NS(C)(=O)=O)c2)c(N)nc1N)c1cc2cccc(Cl)c2c(=O)n1-c1ccccc1 assayed_target="RAJI p110 δ (Homo sapiens, UniProt O00329)" recorded_result="< 100 nM"
line_notation=COc1cc(-c2cccc3cc([C@H](C)NC(=O)c4c(N)ncc5cccnc45)n(-c4ccccc4)c(=O)c23)ccn1 assayed_target="RAJI p110 δ (Homo sapiens, UniProt O00329)" recorded_result="< 100 nM"
line_notation=C[C@H](NC(=O)c1cnn2cccnc12)c1cc2cccc(Cl)c2c(=O)n1-c1ccccc1 assayed_target="RAJI p110 δ (Homo sapiens, UniProt O00329)" recorded_result="100 to 1000 nM"
line_notation=C[C@H](NC(=O)c1c(N)nn2cccnc12)c1cc2cccc(C#CCNC(=O)C3CC(=O)CC(=O)C3)c2c(=O)n1-c1ccccc1 assayed_target="RAJI p110 δ (Homo sapiens, UniProt O00329)" recorded_result="1000 to 10000 nM"
line_notation=COc1cc(-c2cccc3cc([C@H](C)NC(=O)c4ncc(C)nc4N)n(-c4ccccc4)c(=O)c23)ccn1 assayed_target="RAJI p110 δ (Homo sapiens, UniProt O00329)" recorded_result="100 to 1000 nM"
line_notation=C[C@H](NC(=O)c1c(N)nn2cccnc12)c1cc2cccc(Cl)c2c(=O)n1-c1cccc(F)c1 assayed_target="RAJI p110 δ (Homo sapiens, UniProt O00329)" recorded_result="< 100 nM"
line_notation=C[C@H](NC(=O)c1nc(-c2cccc(S(C)(=O)=O)c2)cnc1N)c1cc2cccc(Cl)c2c(=O)n1-c1ccccc1 assayed_target="RAJI p110 δ (Homo sapiens, UniProt O00329)" recorded_result="100 to 1000 nM"
line_notation=CNc1cccc2cc([C@H](C)NC(=O)c3c(N)nn4cccnc34)n(-c3ccccc3)c(=O)c12 assayed_target="RAJI p110 δ (Homo sapiens, UniProt O00329)" recorded_result="100 to 1000 nM"
line_notation=C[C@H](NC(=O)c1nccnc1N)c1cc2cccc(-c3cc[nH]n3)c2c(=O)n1-c1ccccc1 assayed_target="RAJI p110 δ (Homo sapiens, UniProt O00329)" recorded_result="< 100 nM"
line_notation=C[C@H](NC(=O)c1c(N)nn2cccnc12)c1cc2cccc(-c3cncs3)c2c(=O)n1-c1ccccc1 assayed_target="RAJI p110 δ (Homo sapiens, UniProt O00329)" recorded_result="< 100 nM"
line_notation=C[C@H](NC(=O)c1c(N)nn2cccnc12)c1cc2cccc(F)c2c(=O)n1-c1ccccc1 assayed_target="RAJI p110 δ (Homo sapiens, UniProt O00329)" recorded_result="< 100 nM"
line_notation=C[C@H](NC(=O)c1nccnc1N)c1cc2cccc(-c3cccnc3)c2c(=O)n1-c1ccccc1 assayed_target="RAJI p110 δ (Homo sapiens, UniProt O00329)" recorded_result="< 100 nM"
line_notation=C[C@H](NC(=O)c1c(N)nn2ccc(-c3cccc(S(C)(=O)=O)c3)nc12)c1cc2cccc(Cl)c2c(=O)n1-c1ccccc1 assayed_target="RAJI p110 δ (Homo sapiens, UniProt O00329)" recorded_result="< 100 nM"
line_notation=CNS(=O)(=O)c1cccc(-c2cnc(N)c(C(=O)N[C@@H](C)c3cc4cccc(Cl)c4c(=O)n3-c3ccccc3)n2)c1 assayed_target="RAJI p110 δ (Homo sapiens, UniProt O00329)" recorded_result="< 100 nM"
line_notation=C[C@H](NC(=O)c1nc(-c2cccc(O)c2)cnc1N)c1cc2cccc(Cl)c2c(=O)n1-c1ccccc1 assayed_target="RAJI p110 δ (Homo sapiens, UniProt O00329)" recorded_result="100 to 1000 nM"
line_notation=C[C@H](NC(=O)c1nc(-c2cccc(S(N)(=O)=O)c2)cnc1N)c1cc2cccc(Cl)c2c(=O)n1-c1ccccc1 assayed_target="RAJI p110 δ (Homo sapiens, UniProt O00329)" recorded_result="100 to 1000 nM"
line_notation=C[C@H](NC(=O)c1nc(-c2cccc(S(=O)(=O)N(C)C)c2)cnc1N)c1cc2cccc(Cl)c2c(=O)n1-c1ccccc1 assayed_target="RAJI p110 δ (Homo sapiens, UniProt O00329)" recorded_result="100 to 1000 nM"
line_notation=C[C@H](NC(=O)c1nc(-c2ccc(NS(C)(=O)=O)cc2)cnc1N)c1cc2cccc(Cl)c2c(=O)n1-c1ccccc1 assayed_target="RAJI p110 δ (Homo sapiens, UniProt O00329)" recorded_result="1000 to 10000 nM"
line_notation=C[C@H](NC(=O)c1c(N)nn2cccnc12)c1cc2cccc(N(C)C)c2c(=O)n1-c1ccccc1 assayed_target="RAJI p110 δ (Homo sapiens, UniProt O00329)" recorded_result="1000 to 10000 nM"
line_notation=C[C@H](NC(=O)c1cncc2cccnc12)c1cc2cccc(Cl)c2c(=O)n1-c1ccccc1 assayed_target="RAJI p110 δ (Homo sapiens, UniProt O00329)" recorded_result="< 100 nM"
line_notation=C[C@H](NC(=O)c1c(N)nn2cccnc12)c1cc2cccc(Cl)c2c(=O)n1CCN(C)S(C)(=O)=O assayed_target="RAJI p110 δ (Homo sapiens, UniProt O00329)" recorded_result="< 100 nM"
line_notation=CC(C)Oc1ccc(-c2cnc(N)c(C(=O)N[C@@H](C)c3cc4cccc(Cl)c4c(=O)n3-c3ccccc3)n2)cc1Cl assayed_target="RAJI p110 δ (Homo sapiens, UniProt O00329)" recorded_result="> 10000 nM"

###

biological target: PI3K δ (Homo sapiens)
Sequence (O00329 whole entry): as the sequence (O00329 whole entry) above
Sequence (P27986 whole entry partner): as the sequence (P27986 whole entry partner) above
READOUT_TYPE: IC50

molecule="C[C@H](NC(=O)c1nc(-c2cccc(NS(=O)(=O)C3CC3)c2)cnc1N)c1cc2cccc(Cl)c2c(=O)n1-c1ccccc1 [Compound 102]" recorded_result="1000 to 10000 nM"
molecule="C[C@H](NC(=O)c1nccnc1N)c1cc2cccc(Cl)c2c(=O)n1-c1ccccc1 [Compound 4]" recorded_result="< 100 nM"
molecule="C[C@H](NC(=O)c1nc(-c2csc(S(C)(=O)=O)n2)cnc1N)c1cc2cccc(Cl)c2c(=O)n1-c1ccccc1 [Compound 113]" recorded_result="> 10000 nM"
molecule="C[C@H](NC(=O)c1cncc2cccnc12)c1cc2cccc(Cl)c2c(=O)n1-c1ccc(F)cc1 [Compound 65]" recorded_result="1000 to 10000 nM"
molecule="C[C@H](NC(=O)c1c(N)nn2cccnc12)c1cc2cccc(N3CCOCC3)c2c(=O)n1-c1ccccc1 [Compound 184]" recorded_result="> 10000 nM"
molecule="C[C@H](NC(=O)c1nc(-c2ccc(S(C)(=O)=O)cc2)cnc1N)c1cc2cccc(Cl)c2c(=O)n1-c1ccccc1 [Compound 90]" recorded_result="> 10000 nM"
molecule="C[C@H](NC(=O)c1nccnc1N)c1cc2cccc(Cl)c2c(=O)n1-c1ccc(F)cc1 [Compound 19]" recorded_result="100 to 1000 nM"
molecule="C[C@H](NC(=O)c1c(N)nn2cccnc12)c1cc2cccc(Cl)c2c(=O)n1C1CC1 [Compound 77]" recorded_result="100 to 1000 nM"
molecule="C[C@H](NC(=O)c1c(N)nn2cccnc12)c1cc2cccc(O)c2c(=O)n1-c1ccccc1 [Compound 132]" recorded_result="> 10000 nM"
molecule="COc1cc(-c2cccc3cc([C@H](C)NC(=O)c4c(N)nn5ccc(C)nc45)n(-c4ccccc4)c(=O)c23)ccn1 [Compound 186]" recorded_result="1000 to 10000 nM"
molecule="CC(C)c1ccn2nc(N)c(C(=O)N[C@@H](C)c3cc4cccc(Cl)c4c(=O)n3-c3ccccc3)c2n1 [Compound 178]" recorded_result="1000 to 10000 nM"
molecule="C[C@H](NC(=O)c1c(N)nn2cccnc12)c1cc2cccc(C=O)c2c(=O)n1-c1ccccc1 [Compound 201]" recorded_result="1000 to 10000 nM"
molecule="C[C@H](NC(=O)c1nc(-c2cccc(S(C)(=O)=O)c2)cnc1N)c1cc2cccc(Cl)c2c(=O)n1-c1ccccc1 [Compound 84]" recorded_result="1000 to 10000 nM"
molecule="CNCCn1c([C@H](C)NC(=O)c2c(N)nn3cccnc23)cc2cccc(Cl)c2c1=O [Compound 241]" recorded_result="< 100 nM"
molecule="C[C@H](NC(=O)c1c(N)nn2cccnc12)c1cc2cccc(/C=N\\O)c2c(=O)n1-c1ccccc1 [Compound 226]" recorded_result="1000 to 10000 nM"
